Hi there, I'd appreciate the recorded pIC50 for every entry that follows.
target: Macrophage metalloelastase (Homo sapiens, UniProt P39900); assay: Inhibition of recombinant human MMP-12 using Mca-Lys-Pro-Leu-Gly-Leu-Dap(Dnp)-Ala-Arg-NH2 as substrate preincubated for 3 hrs followed by substrate addition measured every 10 secs for 15 mins by fluorometric assay
Sequence (P39900 whole entry): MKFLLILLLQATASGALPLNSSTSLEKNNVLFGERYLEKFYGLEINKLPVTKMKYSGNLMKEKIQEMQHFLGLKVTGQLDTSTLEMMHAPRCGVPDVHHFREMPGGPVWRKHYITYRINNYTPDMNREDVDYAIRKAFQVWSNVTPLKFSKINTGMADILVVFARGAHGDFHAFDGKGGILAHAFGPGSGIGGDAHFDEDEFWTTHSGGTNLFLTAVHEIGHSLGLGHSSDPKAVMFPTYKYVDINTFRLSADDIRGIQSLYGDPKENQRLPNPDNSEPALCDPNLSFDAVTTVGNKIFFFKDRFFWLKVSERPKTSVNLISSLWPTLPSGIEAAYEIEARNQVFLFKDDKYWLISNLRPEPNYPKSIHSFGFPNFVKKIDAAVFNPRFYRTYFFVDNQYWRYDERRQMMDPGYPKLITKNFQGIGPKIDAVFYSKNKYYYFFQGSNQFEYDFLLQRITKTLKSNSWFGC
Remember the convention: pIC50 equals -log10 of concentration in molar.

Lab note: COc1ccc(-c2ccc(Sc3ccccc3C3CCC(=O)N(O)C3=O)cc2)cc1 (stereo not drawn) gave pIC50 of 7.48

Per the records, this molecule ( "COc1ccc(-c2ccc(Sc3ccccc3CC(=O)NS(C)(=O)=O)cc2)cc1" ) has pIC50 equal to 5.48

Item: "COc1ccc(-c2ccc(S(=O)(=O)c3ccccc3CP(=O)(O)O)cc2)cc1" | pIC50: 6.22

In plain terms, COc1ccc(-c2ccc(S(=O)(=O)c3ccccc3C3CCC(=O)N(O)C3=O)cc2)cc1 (stereo not drawn) has a documented pIC50 of 7.40

pIC50 measured on "COc1ccc(-c2ccc(Sc3ccccc3C(=O)CS(C)(=O)=O)cc2)cc1" = 3.64

The value of pIC50 measured for the molecule "COc1ccc(-c2ccc(Sc3ccccc3CP(=O)(O)O)cc2)cc1" turned out to be 6.60

Lab note: "COc1ccc(-c2ccc(S(=O)(=O)c3ccccc3CC(=O)NS(=O)(=O)C(F)(F)F)cc2)cc1" gave pIC50 of 5.12

Noted for COc1ccc(-c2ccc(Sc3ccccc3C(CCC(=O)O)C(=O)O)cc2)cc1 (stereo not drawn) : its pIC50 reads 7.59

// field: pIC50; key: "COc1ccc(-c2ccc(S(=O)(=O)c3ccccc3CC(=O)NS(C)(=O)=O)cc2)cc1" ; value = 5.46

For "COc1ccc(-c2ccc(Sc3ccccc3CC(=O)NS(=O)(=O)C(F)(F)F)cc2)cc1" the molecule record lists pIC50 as 5.68

Entry "COc1ccc(-c2ccc(Sc3ccccc3CC(=O)O)cc2)cc1" — recorded pIC50 = 7.40

Measured pIC50, COc1ccc(-c2ccc(S(=O)(=O)c3ccccc3C(CCC(=O)O)C(=O)O)cc2)cc1 (stereo not drawn) : 6.29
